Molecular target: GlcNAc(a1-4)Gal(b1-4)GlcNAc(b1-3)Gal(b1-4)[Fuc(a1-3)]GlcNAc(b1-3)Gal(b1-4)[Fuc(a1-3)]GlcNAc
Assay: glycan array binding signal (z-score within array); higher = stronger binding
Conditions: glycan notation: IUPAC condensed, linker removed
About 410 targets per protein were measured; listed, in parts, are those with the strongest signals and a random draw of the rest.
Would you mind telling me the reported glycan array binding signal (z-score) of each entry?
Write the number on its own, no unit after it.

Kindly note the recorded glycan array binding signal (z-score) for XL-35 (Xenopus laevis) (protein) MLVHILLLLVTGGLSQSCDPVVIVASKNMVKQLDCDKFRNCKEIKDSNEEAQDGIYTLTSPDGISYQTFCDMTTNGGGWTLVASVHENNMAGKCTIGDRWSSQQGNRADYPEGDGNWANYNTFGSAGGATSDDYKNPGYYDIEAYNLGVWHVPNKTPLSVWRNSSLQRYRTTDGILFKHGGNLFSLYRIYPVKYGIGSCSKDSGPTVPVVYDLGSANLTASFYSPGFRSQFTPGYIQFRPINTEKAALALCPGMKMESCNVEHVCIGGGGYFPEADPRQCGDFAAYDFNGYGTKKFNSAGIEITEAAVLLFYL , which is 1.05

Kindly note the recorded glycan array binding signal (z-score) for Gal 10 (Homo sapiens), Q05315 (protein) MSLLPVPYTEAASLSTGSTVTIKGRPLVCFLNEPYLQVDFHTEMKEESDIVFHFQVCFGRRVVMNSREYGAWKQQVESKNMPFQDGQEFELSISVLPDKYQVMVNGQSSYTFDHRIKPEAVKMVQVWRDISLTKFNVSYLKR , which is 3.48

Kindly note the recorded glycan array binding signal (z-score) for Thrombomodulin (Mus musculus) (protein) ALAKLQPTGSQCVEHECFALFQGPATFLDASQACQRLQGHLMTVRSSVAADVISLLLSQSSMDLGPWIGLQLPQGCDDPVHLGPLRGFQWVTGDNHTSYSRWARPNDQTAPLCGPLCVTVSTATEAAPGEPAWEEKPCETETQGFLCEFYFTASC , which is 0.047

Kindly note the recorded glycan array binding signal (z-score) for GS13455A-bfa-343-25-343 (Bacteroides fragilis) (protein) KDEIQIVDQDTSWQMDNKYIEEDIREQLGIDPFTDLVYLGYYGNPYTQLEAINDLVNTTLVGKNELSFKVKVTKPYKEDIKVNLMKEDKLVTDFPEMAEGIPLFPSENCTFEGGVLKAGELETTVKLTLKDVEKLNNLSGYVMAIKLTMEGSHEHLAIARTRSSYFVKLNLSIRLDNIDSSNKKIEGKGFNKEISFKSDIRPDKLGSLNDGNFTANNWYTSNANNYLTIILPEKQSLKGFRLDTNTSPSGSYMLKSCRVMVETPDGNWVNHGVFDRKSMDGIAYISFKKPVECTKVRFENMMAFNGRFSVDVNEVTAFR , which is 1.64
